For each of the compounds below, state its CS secretion MED alone.
target-or-system: 5HT1A receptors (Rattus norvegicus)
Sequence (P19327 whole entry): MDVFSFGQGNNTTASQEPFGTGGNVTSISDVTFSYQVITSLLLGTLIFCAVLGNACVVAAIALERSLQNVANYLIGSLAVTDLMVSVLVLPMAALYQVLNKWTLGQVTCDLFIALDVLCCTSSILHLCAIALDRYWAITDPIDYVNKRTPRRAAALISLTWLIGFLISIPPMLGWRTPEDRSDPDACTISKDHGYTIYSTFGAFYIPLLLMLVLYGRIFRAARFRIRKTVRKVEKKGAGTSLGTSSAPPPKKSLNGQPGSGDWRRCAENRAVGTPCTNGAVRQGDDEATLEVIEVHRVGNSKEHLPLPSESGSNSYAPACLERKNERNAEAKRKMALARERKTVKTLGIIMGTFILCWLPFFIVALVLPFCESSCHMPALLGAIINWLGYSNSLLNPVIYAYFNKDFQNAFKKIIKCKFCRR
experiment-notes: Corticosterone secretion (CS), agonist (alone) and antagonist (vs 8-OH-DPAT)
Format: in vivo, rat (male Wistar)
Parameters: from tissue; host or cells: whole living male Wistar rats (endogenous receptor)
assay-conditions: agonist test; compound alone s.c.; minimum effective dose vs control

Prompt: Which CS secretion MED alone reading was recorded for the compound c1cc2c(c(N3CCN(CCc4cccc5ccccc45)CC3)c1)OCCO2 [Example 5] ?
Response: > 2.5 mg/kg

Prompt: For the compound shown here, O=C1CC2(CCCC2)CC(=O)N1CCCCN1CCN(c2ncccn2)CC1 [buspirone, reference compound] , give the reported CS secretion MED alone.
Response: 2.5 mg/kg

Prompt: // query CS secretion MED alone value for entry c1cc2c(c(N3CCN(CCCc4ccsc4)CC3)c1)OCCO2 [Example 1]
Response: 10.0 mg/kg

Prompt: Please give the measured CS secretion MED alone for this compound: c1ccc(CCCN2CCN(c3cccc4c3OCCO4)CC2)cc1 [Example 12]
Response: > 2.5 mg/kg

Prompt: Item c1cc2c(c(N3CCN(CC4Cc5ccsc5C4)CC3)c1)OCCO2 (racemic) [Example 3] has what recorded CS secretion MED alone?
Response: > 10.0 mg/kg

Prompt: Field request: CS secretion MED alone | item: c1cc2c(c(N3CCN(CCc4ccsc4)CC3)c1)OCCO2 [Example 11]
Response: > 2.5 mg/kg
